Values were extracted from patent US10174005B2.

Give pIC50 for every item shown.
System: A549 cells
testMethodNotes: Cultured cancer cell viability assay (cell titer glo, CTG) in A549 cells
Assay type: cell-based
testSettings: Homo sapiens, A549, 72 h, read-out: A549 CTG IC50
pIC50: −log10 of the molar value.

Could you tell me pIC50 for each of these compounds? They are listed below.
1. COc1nc2c(C(N)=O)cccc2n1-c1nc(NCc2cccc(F)c2)c2c(n1)OCCC2 [FF15]
2. Cc1cc2c(C(N)=O)cccc2n1-c1nc2c(c(NCc3ccccc3)n1)CCNCC2 [FF20]

> 5.52
> 5.52

---

In what follows, each item is paired with its pIC50 for p97 (Homo sapiens, UniProt P55072).
pIC50: −log10 of the molar value.

molecule | testedOn | pIC50
Cc1cc2c(C(N)=O)cccc2n1-c1nc2c(c(NCc3ccccc3)n1)N(C)CCC2 [FF21] | p97 (Homo sapiens, UniProt P55072) | > 7.52
Cc1[nH]c2c(C(N)=O)cccc2c1-c1nc2c(c(NCc3ccccc3)n1)CCCC2 [FF05] | p97 (Homo sapiens, UniProt P55072) | > 7.52
Cc1cc2c(C(N)=O)cccc2n1-c1nc(NCc2ccccc2)c2c(n1)OCC2 [FF08] | p97 (Homo sapiens, UniProt P55072) | > 7.00

Could you tell me pIC50 for each of these molecules? They are listed below.
1. Cc1cc2c(C(N)=O)cccc2n1-c1nc2c(c(NCc3cccc(F)c3)n1)NCCC2 [FF25]
2. Cc1oc2c(C(N)=O)cccc2c1-c1nc2c(c(NCc3ccccc3)n1)CCCC2 [FF35]
3. Cc1cc2c(C(N)=O)cccc2n1-c1nc(NCc2ccccc2)c2c(n1)C(C)CNC2 (stereo not shown) [FF19]
4. Cc1cc2c(C(N)=O)cccc2n1-c1nc(NCc2ccccc2)c2c(n1)OCCC2 [FF06]
5. Cc1cc2c(C(N)=O)cccc2n1-c1nc2c(c(NCc3ccccc3)n1)CCNCC2 [FF20]

1: > 7.52; 2: > 7.52; 3: > 7.00; 4: > 7.52; 5: > 6.52

Could you tell me pIC50 for each of these molecules? They are listed below.
1. Cc1cc2c(C(N)=O)cccc2n1-c1nc(NCc2cccc(F)c2)c2c(n1)OCCC2 [FF09]
2. Cc1[nH]c2c(C(N)=O)cccc2c1-c1nc2c(c(NCc3ccccc3)n1)COCC2 [FF10]
3. NCc1cc2c(C(N)=O)cccc2n1-c1nc(NCc2ccccc2)c2c(n1)OCCC2 [FF32]
4. Cc1cc2c(C(N)=O)cccc2n1-c1nc(NCc2ccccc2)c2c(n1)N(C)CCC2 [FF29]

["> 7.52", "> 7.00", "> 7.00", "> 7.52"]

Annotate the molecule COc1nc2c(C(N)=O)cccc2n1-c1nc(NCc2cccc(F)c2)c2c(n1)OCCC2 [FF15] with its measured pIC50.
> 7.52

---

testedOn: p97 (Homo sapiens)
Sequence (P55072 whole entry): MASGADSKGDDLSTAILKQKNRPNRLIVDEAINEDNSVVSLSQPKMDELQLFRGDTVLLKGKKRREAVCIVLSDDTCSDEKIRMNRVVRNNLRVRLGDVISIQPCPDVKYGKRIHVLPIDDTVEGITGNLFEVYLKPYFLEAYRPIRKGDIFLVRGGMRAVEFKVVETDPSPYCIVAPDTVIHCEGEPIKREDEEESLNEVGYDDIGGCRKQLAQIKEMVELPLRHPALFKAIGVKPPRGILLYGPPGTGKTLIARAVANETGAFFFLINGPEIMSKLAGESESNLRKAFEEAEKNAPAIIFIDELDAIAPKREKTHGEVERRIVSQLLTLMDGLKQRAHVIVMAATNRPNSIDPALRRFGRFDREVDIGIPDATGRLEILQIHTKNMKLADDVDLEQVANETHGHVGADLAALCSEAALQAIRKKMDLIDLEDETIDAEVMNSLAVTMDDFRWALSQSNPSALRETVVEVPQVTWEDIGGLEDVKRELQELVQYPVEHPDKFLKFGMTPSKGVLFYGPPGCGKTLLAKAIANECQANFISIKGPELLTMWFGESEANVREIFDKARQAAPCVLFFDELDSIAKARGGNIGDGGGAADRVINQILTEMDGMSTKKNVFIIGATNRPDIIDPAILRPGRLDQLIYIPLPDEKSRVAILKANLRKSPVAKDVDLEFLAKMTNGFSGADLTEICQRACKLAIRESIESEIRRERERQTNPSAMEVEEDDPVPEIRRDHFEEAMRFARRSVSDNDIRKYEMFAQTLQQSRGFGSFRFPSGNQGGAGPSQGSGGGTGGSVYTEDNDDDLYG
valueKind: IC50

Consider the reported IC50 for these molecules:
smilesNotation | IC50
NC(=O)c1cccc2c1cnn2-c1nc(NCc2ccccc2)c2c(n1)OCCC2 | < 100 nM
NC(=O)c1cccc2c1cc(CO)n2-c1nc2c(c(NCc3ccccc3)n1)CCCN2 | < 30 nM
Cc1cc2c(C(N)=O)cccc2n1-c1nc2c(c(NCc3ccccc3)n1)CCCCC2 | < 30 nM

Could you tell me IC50 for each of these molecules? They are listed below.
1. Cc1cc2c(C(N)=O)cccc2n1-c1nc(NCc2cc(F)cc(F)c2)c2c(n1)OCCC2
2. Cc1cc2c(C(N)=O)cccc2n1-c1nc2c(c(NCc3cccc(F)c3)n1)CCCN2

["< 30 nM", "< 30 nM"]
